system: SK-N-SH; experiment: Induction of neurite outgrowth in human SK-N-SH cells at 100 uM after 5 days relative to control; type: functional
TEST_READOUT: Activity (%)
API: value field is a number in %; no unit string.

CC(C)=CCC[C@](C)(O[C@@H]1O[C@H](CO[C@@H]2O[C@H](CO)[C@@H](O)[C@H](O)[C@H]2O)[C@@H](O)[C@H](O)[C@H]1O)[C@H]1CC[C@]2(C)[C@@H]1[C@H](O)C[C@@H]1[C@@]3(C)CC[C@H](O[C@@H]4O[C@H](CO)[C@@H](O)[C@H](O)[C@H]4O[C@@H]4O[C@H](CO)[C@@H](O)[C@H](O)[C@H]4O)C(C)(C)[C@@H]3CC[C@]12C [GINSENOSIDE RB1] : 178

Okay, now this molecule:
Query string: Look up and state reported Activity for CC(C)=CCC[C@](C)(O[C@@H]1O[C@H](CO)[C@@H](O)[C@H](O)[C@H]1O)[C@H]1CC[C@]2(C)[C@@H]1[C@H](O)C[C@@H]1[C@@]3(C)CC[C@H](O)C(C)(C)[C@@H]3[C@@H](O[C@@H]3O[C@H](CO)[C@@H](O)[C@H](O)[C@H]3O)C[C@]12C [GINSENOSIDE RG1]
Result string: 107.3

----------
test system: SK-N-SH; experiment: Induction of neurite outgrowth in human SK-N-SH cells at 100 uM after 5 days relative to control; assay type: functional
Measured Activity of individual entries
The reply should contain only the number, in %.

Below, 2 compounds whose answers are already recorded.
CC(C)=CCC[C@](C)(O[C@@H]1O[C@H](CO[C@@H]2OC[C@@H](O)[C@H](O)[C@H]2O)[C@@H](O)[C@H](O)[C@H]1O)[C@H]1CC[C@]2(C)[C@@H]1[C@H](O)C[C@@H]1[C@@]3(C)CC[C@H](O[C@@H]4O[C@H](CO)[C@@H](O)[C@H](O)[C@H]4O[C@@H]4O[C@H](CO)[C@@H](O)[C@H](O)[C@H]4O)C(C)(C)[C@@H]3CC[C@]12C [GINSENOSIDE RB3] : 228
CC(C)(O)[C@@H]1CC[C@@](C)([C@H]2CC[C@]3(C)[C@@H]2[C@H](O)C[C@@H]2[C@@]4(C)CC[C@H](O)C(C)(C)[C@@H]4[C@@H](O[C@@H]4O[C@H](CO)[C@@H](O)[C@H](O)[C@H]4O[C@@H]4OC[C@@H](O)[C@H](O)[C@H]4O)C[C@]23C)O1 [MAJONOSIDE R2] : 109.6

Could you now look at the following compound, please?
Query string: For CC(C)=CCC[C@](C)(O[C@@H]1O[C@H](CO)[C@@H](O)[C@H](O)[C@H]1O)[C@H]1CC[C@]2(C)[C@@H]1[C@H](O)C[C@@H]1[C@@]3(C)CC[C@H](O)C(C)(C)[C@@H]3[C@@H](O[C@@H]3O[C@H](CO)[C@@H](O)[C@H](O)[C@H]3O[C@@H]3O[C@H](CO)[C@@H](O)[C@H](O)[C@H]3O)C[C@]12C , write its Activity.
Result string: 96.6

----------
Activity listing for selected molecules.
test system: SK-N-SH; experiment: Induction of neurite outgrowth in human SK-N-SH cells at 100 uM after 5 days relative to control; assay type: functional
Write it as a number; the unit % goes unstated.

CC(C)=CCC[C@](C)(O[C@@H]1O[C@H](CO)[C@@H](O)[C@H](O)[C@H]1O)[C@H]1CC[C@]2(C)[C@@H]1[C@H](O)C[C@@H]1[C@@]3(C)CC[C@H](O)C(C)(C)[C@@H]3[C@@H](O[C@@H]3O[C@H](CO)[C@@H](O)[C@H](O)[C@H]3O[C@@H]3OC[C@@H](O)[C@H](O)[C@H]3O)C[C@]12C [NOTOGINSENOSIDE R1] : 84.6
CC(C)=CCC[C@](C)(O[C@@H]1O[C@H](CO)[C@@H](O)[C@H](O)[C@H]1O)[C@H]1CC[C@]2(C)[C@@H]1[C@H](O)C[C@@H]1[C@@]3(C)CC[C@H](O)C(C)(C)[C@@H]3[C@@H](O[C@@H]3O[C@H](CO)[C@@H](O)[C@H](O)[C@H]3O[C@@H]3O[C@@H](C)[C@H](O)[C@@H](O)[C@H]3O)C[C@]12C [GINSENOSIDE RE] : 83.5
CC(C)=CCC[C@](C)(O[C@@H]1O[C@H](CO[C@@H]2O[C@H](CO)[C@@H](O)[C@H](O)[C@H]2O)[C@@H](O)[C@H](O)[C@H]1O)[C@H]1CC[C@]2(C)[C@@H]1[C@H](O)C[C@@H]1[C@@]3(C)CC[C@H](O[C@@H]4O[C@H](CO)[C@@H](O)[C@H](O)[C@H]4O[C@@H]4O[C@H](CO)[C@@H](O)[C@H](O)[C@H]4O[C@@H]4OC[C@@H](O)[C@H](O)[C@H]4O)C(C)(C)[C@@H]3CC[C@]12C [NOTOGINSENOSIDE FA] : 147

Query string: Given the molecule CC(=O)OC[C@H]1O[C@@H](O[C@H]2C[C@]3(C)[C@H](C[C@@H](O)[C@@H]4[C@@H]([C@]5(C)CC[C@@H](C(C)(C)O)O5)CC[C@]43C)[C@@]3(C)CC[C@H](O)C(C)(C)[C@H]23)[C@H](O[C@@H]2O[C@H](C)[C@@H](O)[C@H](O)[C@@H]2O)[C@@H](O)[C@@H]1O [VINA-GINSENOSIDE R1] , write its reported Activity.
Result string: 82.2

Query string: Tell me measured Activity for CC(=O)OC[C@H]1O[C@@H](O[C@H]2C[C@]3(C)[C@H](C[C@@H](O)[C@@H]4[C@@H]([C@]5(C)CC[C@@H](C(C)(C)O)O5)CC[C@]43C)[C@@]3(C)CC[C@H](O)C(C)(C)[C@H]23)[C@H](O[C@@H]2OC[C@@H](O)[C@H](O)[C@H]2O)[C@@H](O)[C@@H]1O [GINSENOSIDE R2] please.
Result string: 97

Query string: Annotate the molecule CC(C)(O)[C@@H]1CC[C@@](C)([C@H]2CC[C@]3(C)[C@@H]2[C@H](O)C[C@@H]2[C@@]4(C)CC[C@H](O)C(C)(C)[C@@H]4[C@@H](O[C@@H]4O[C@H](CO[C@H]5O[C@H](CO)[C@@H](O)[C@H](O)[C@H]5O)[C@@H](O)[C@H](O)[C@H]4O[C@@H]4OC[C@@H](O)[C@H](O)[C@H]4O)C[C@]23C)O1 with its measured Activity.
Result string: 104.1

Query string: Answer with the recorded Activity of CC(C)(O)[C@@H]1CC[C@@](C)([C@H]2CC[C@]3(C)[C@@H]2[C@H](O)C[C@@H]2[C@@]4(C)CC[C@H](O)C(C)(C)[C@@H]4[C@@H](O[C@@H]4O[C@H](CO)[C@@H](O)[C@H](O)[C@H]4O)C[C@]23C)O1 only.
Result string: 91.4

All values here come from ChEMBL document CHEMBL1137810.
